Assay Notes: Primary fluorescence-based thiol-reactive (MSTI) qHTS assay for identification of artifact compounds. (AID 1845221); note: nearly all actives have a fitted effect of over 65% in size
Experimental Conditions: MSTI thiol-reactivity probe, 1 h; series mostly up to 53.8 µM
Source text: PI: Alexander Tropsha Ph.D. UNC Eshelman School of Pharmacy University of North Carolina, Chapel Hill, North Carolina Hits from high-throughput screening (HTS) of chemical libraries are often false positives due to their interference with the assay detection technology. […] Using these curated datasets, we developed and validated several Quantitative Structure-Interference Relationship (QSIR) models to predict nuisance behavior. […]
Results filed as inconclusive are left out. Activity calls are given as the source filed them. Calls come from the whole dose curve; as a rule, active = well fitted inhibition curve with a large enough effect; inconclusive = small, poorly fitted or top-dose-only effect; inactive = no such curve, though single readings can be large or run the other way.
Assign a class; possible classes are class 1 = active, class 0 = inactive

[[record]]
smiles_notation = "Cc1coc2c1C(=O)C(=O)c1c-2ccc2c1CCCC2(C)C"
qualitative_label = "class 1"


Turning now to a further record.
QUERY: What was the test verdict on CCCCCCCCCC(=O)N[C@@H](Cc1c[nH]c2ccccc12)C(=O)N[C@H](CC(N)=O)C(=O)N[C@@H](CC(=O)O)C(=O)N[C@@H]1C(=O)NCC(=O)N[C@@H](CCCN)C(=O)N[C@@H](CC(=O)O)C(=O)N[C@H](C)C(=O)N[C@@H](CC(=O)O)C(=O)NCC(=O)N[C@H](CO)C(=O)N[C@@H]([C@@H](C)CC(=O)O)C(=O)N[C@@H](CC(=O)c2ccccc2N)C(=O)O[C@@H]1C ?
RESULT: class 0
